# Ratio EC50 values compiled below
Test system: Human immunodeficiency virus 1
method: Selectivity index, ratio of EC50 for Human immunodeficiency virus 1 isolate M3 expressing protease L10I, K20R, M36I, G48V, I62V, A71V, V82A, I93L mutant to EC50 for Human immunodeficiency virus 1 3B expressing wild-type protease
Type: functional
Give the figure only, with no unit attached.

{"columns": ["chemicalSmiles", "readoutValue"],
 "data": [
  ["CC(C)CN(C[C@@H](O)[C@H](Cc1ccccc1)NC(=O)O[C@H]1CO[C@H]2OC[C@H](Oc3ccccc3)[C@H]21)S(=O)(=O)c1ccc(N)cc1", 0.7],
  ["COC(=O)N[C@H](C(=O)N[C@@H](Cc1ccccc1)[C@@H](O)CN(Cc1ccc(-c2ccccn2)cc1)NC(=O)[C@@H](NC(=O)OC)C(C)(C)C)C(C)(C)C", 8.8],
  ["CNc1nc2ccc(S(=O)(=O)N(CC(C)C)C[C@@H](O)[C@H](Cc3ccccc3)NC(=O)O[C@H]3CO[C@H]4OC[C@H](O)[C@H]43)cc2o1", 0.8]
]}

Entry CNc1nc2ccc(S(=O)(=O)N(CC(C)C)C[C@@H](O)[C@H](Cc3ccccc3)NC(=O)O[C@H]3CO[C@H]4OC[C@H](OCOC)[C@H]43)cc2o1 ; Ratio EC50 = 0.7

Entry CNc1nc2ccc(S(=O)(=O)N(CC(C)C)C[C@@H](O)[C@H](Cc3ccccc3)NC(=O)O[C@H]3CO[C@H]4OC[C@H](OCc5ccc(F)cc5F)[C@H]43)cc2o1 ; Ratio EC50 = 1.3

Entry CNc1nc2ccc(S(=O)(=O)N(CC(C)C)C[C@@H](O)[C@H](Cc3ccccc3)NC(=O)O[C@H]3CO[C@H]4OCC[C@H]43)cc2o1 ; Ratio EC50 = 0.4
